- measurement_target: 5-hydroxytryptamine receptor 1B (Homo sapiens)
- method_summary: Displacement of [3H]5-HT binding to cloned 5-hydroxytryptamine 1B receptor stably expressed in CHO cells
- Format: cell-based
pIC50: −log10 of the molar value.
# if value of pIC50 reaches 7, tag Criterion met; if it stays below, tag Criterion not met

{"smiles_notation": "c1ccc(CNCC2CCN(CCCc3c[nH]c4ccc(-n5cnnc5)cc34)CC2)cc1", "measurement_target": "5-hydroxytryptamine receptor 1B (Homo sapiens)", "label": "Criterion met"}
{"smiles_notation": "CC(=O)Nc1ccc(CNC2CCN(CCCc3c[nH]c4ccc(-n5cnnc5)cc34)CC2)cc1", "measurement_target": "5-hydroxytryptamine receptor 1B (Homo sapiens)", "label": "Criterion met"}

Request: Entry OC[C@H](NC1CCN(CCCc2c[nH]c3ccc(-n4cncn4)cc23)CC1)c1ccccc1 : is its pIC50 no less than 7?
Response: Criterion not met

---

- measurement_target: 5-hydroxytryptamine receptor 1D (Homo sapiens, UniProt P28221)
- Sequence (P28221 whole entry): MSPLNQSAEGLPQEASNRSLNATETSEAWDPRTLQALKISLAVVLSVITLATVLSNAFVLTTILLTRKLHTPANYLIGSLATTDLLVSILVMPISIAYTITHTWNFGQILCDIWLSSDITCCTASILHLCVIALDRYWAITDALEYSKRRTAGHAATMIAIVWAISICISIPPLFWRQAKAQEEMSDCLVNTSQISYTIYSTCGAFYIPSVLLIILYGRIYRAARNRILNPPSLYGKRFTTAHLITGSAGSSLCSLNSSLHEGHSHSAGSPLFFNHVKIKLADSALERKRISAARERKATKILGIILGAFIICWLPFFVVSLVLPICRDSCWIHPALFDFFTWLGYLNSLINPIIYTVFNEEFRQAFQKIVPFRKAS
- method_summary: Displacement of [3H]5-HT binding to cloned human 5-hydroxytryptamine 1D receptor stably expressed in CHO cells
- Assay type: cell-based
quantity: IC50
The reply must contain the numeric value and, after it, the unit.

{"smiles_notation": "CC(=O)Nc1ccc(CCNC2CCN(CCCc3c[nH]c4ccc(-n5cnnc5)cc34)CC2)cc1", "IC50": "12 nM"}
{"smiles_notation": "NC1CCN(CCCc2c[nH]c3ccc(-n4cnnc4)cc23)CC1", "IC50": "12 nM"}
{"smiles_notation": "CN(CC1CC1)C1CCN(CCCc2c[nH]c3ccc(-n4cnnc4)cc23)CC1", "IC50": "22 nM"}
{"smiles_notation": "CN(Cc1ccccc1)CC1CCN(CCCc2c[nH]c3ccc(-n4cnnc4)cc23)CC1", "IC50": "0.9 nM"}
{"smiles_notation": "CN(Cc1ccc(S(C)(=O)=O)cc1)CC1CCN(CCCc2c[nH]c3ccc(-n4cnnc4)cc23)CC1", "IC50": "8.1 nM"}

--- query ---
Request: Complete the entry with IC50 for COC[C@H](NC1CCN(CCCc2c[nH]c3ccc(Cn4cncn4)cc23)CC1)c1ccc(F)cc1
Response: 5 nM

---

- measurement_target: 5-hydroxytryptamine receptor 1B (Homo sapiens, UniProt P28222)
- Sequence (P28222 whole entry): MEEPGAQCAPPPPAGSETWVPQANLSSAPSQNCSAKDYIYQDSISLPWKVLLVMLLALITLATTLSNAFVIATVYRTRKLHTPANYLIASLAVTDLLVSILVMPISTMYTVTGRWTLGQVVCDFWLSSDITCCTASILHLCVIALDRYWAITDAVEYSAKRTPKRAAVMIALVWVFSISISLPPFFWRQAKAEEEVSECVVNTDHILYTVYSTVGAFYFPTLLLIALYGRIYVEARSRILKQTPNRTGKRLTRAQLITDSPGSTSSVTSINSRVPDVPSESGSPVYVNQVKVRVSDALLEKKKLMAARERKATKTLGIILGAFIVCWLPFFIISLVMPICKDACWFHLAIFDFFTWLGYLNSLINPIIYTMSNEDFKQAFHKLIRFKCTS
- method_summary: Displacement of [3H]5-HT binding to cloned 5-hydroxytryptamine 1B receptor stably expressed in CHO cells
- Assay type: cell-based
# maps each entry to its IC50
Give a bare numeral; the unit nM is implied.

Example cases with answers are listed next.
{"compound": "COC[C@H](NC1CCN(CCCc2c[nH]c3ccc(-n4cnnc4)cc23)CC1)c1ccc(F)cc1", "unit_spec": "nM", "IC50": 89}
{"compound": "CN(Cc1ccsc1)C1CCN(CCCc2c[nH]c3ccc(-n4cnnc4)cc23)CC1", "unit_spec": "nM", "IC50": 35}
{"compound": "C[C@@H](NC1CCN(CCCc2c[nH]c3ccc(-n4cncn4)cc23)CC1)c1ccccc1", "unit_spec": "nM", "IC50": 420}

Request: Identify measured IC50 obtained with 5-hydroxytryptamine receptor 1B (Homo sapiens, UniProt P28222) for C[C@@H](NCC1CCN(CCCc2c[nH]c3ccc(-n4cnnc4)cc23)CC1)c1ccccc1 .
Response: 14

Request: Identify measured IC50 obtained with 5-hydroxytryptamine receptor 1B (Homo sapiens, UniProt P28222) for NC1CCN(CCCc2c[nH]c3ccc(-n4cnnc4)cc23)CC1 .
Response: 63

Request: Identify measured IC50 obtained with 5-hydroxytryptamine receptor 1B (Homo sapiens, UniProt P28222) for O=S(=O)(NCC1CCN(CCCc2c[nH]c3ccc(-n4cnnc4)cc23)CC1)c1ccccc1 .
Response: 60

---

- measurement_target: 5-hydroxytryptamine receptor 1D (Homo sapiens)
- method_summary: Agonist-induced [35S]- GTPgammaS binding in CHO cells stably transfected with 5-hydroxytryptamine 1D receptor
# maps each entry to its EC50
Give a bare numeral; the unit nM is implied.

Example cases with answers are listed next.
{"molecule": "C[C@H](Cc1ccccc1)NC1CCN(CCCc2c[nH]c3ccc(-n4cnnc4)cc23)CC1", "unit_spec": "nM", "EC50": 6.8}
{"molecule": "C[C@H](O)[C@H](NC1CCN(CCCc2c[nH]c3ccc(-n4cnnc4)cc23)CC1)c1ccccc1", "unit_spec": "nM", "EC50": 30}
{"molecule": "c1cc(CNC2CCN(CCCc3c[nH]c4ccc(-n5cnnc5)cc34)CC2)ccn1", "unit_spec": "nM", "EC50": 13}
{"molecule": "C[C@@H](NC1CCN(CCCc2c[nH]c3ccc(-n4cnnc4)cc23)CC1)c1ccccc1", "unit_spec": "nM", "EC50": 13}

--- query ---
Request: Identify measured EC50 obtained with 5-hydroxytryptamine receptor 1D (Homo sapiens) for C[C@@H](NC1CCN(CCCc2c[nH]c3ccc(-n4cnnc4)cc23)CC1)[C@H](O)c1ccccc1 .
Response: 15

---

- measurement_target: 5-hydroxytryptamine receptor 1D (Homo sapiens, UniProt P28221)
- method_summary: Displacement of [3H]5-HT binding to cloned human 5-hydroxytryptamine 1D receptor stably expressed in CHO cells
- Assay type: cell-based
Label rule met when IC50 is strictly below 4 nM; at or above that, label rule not met.

{"compound": "O[C@H]1Cc2ccccc2C1NC1CCN(CCCc2c[nH]c3ccc(-n4cnnc4)cc23)CC1 (some centres undefined)", "label": "rule not met"}
{"compound": "C[C@@H](NC1CCN(CCCc2c[nH]c3ccc(-n4cnnc4)cc23)CC1)c1ccccc1", "label": "rule met"}

Request: Hello, I'm reviewing records and need to know if IC50 of CN(CC1CCN(CCCc2c[nH]c3ccc(-n4cnnc4)cc23)CC1)C(=O)Nc1ccccc1 is below 4 nM. Could you check?
Response: rule not met

Request: Hello, I'm reviewing records and need to know if IC50 of CC(=O)Nc1ccc([C@@H](C)NCC2CCN(CCCc3c[nH]c4ccc(-n5cnnc5)cc34)CC2)cc1 is below 4 nM. Could you check?
Response: rule met

Request: Hello, I'm reviewing records and need to know if IC50 of CN(Cc1cccs1)C1CCN(CCCc2c[nH]c3ccc(-n4cnnc4)cc23)CC1 is below 4 nM. Could you check?
Response: rule not met

Request: Hello, I'm reviewing records and need to know if IC50 of c1ccc(C2CCCCN2C2CCN(CCCc3c[nH]c4ccc(-n5cnnc5)cc34)CC2)cc1 (centres undefined) is below 4 nM. Could you check?
Response: rule met

---

- measurement_target: 5-hydroxytryptamine receptor 1B (Homo sapiens, UniProt P28222)
- method_summary: Displacement of [3H]5-HT binding to cloned 5-hydroxytryptamine 1B receptor stably expressed in CHO cells
- Type: cell-based
# maps each entry to its IC50
Give a bare numeral; the unit µM is implied.

{"smiles_notation": "C[C@H](O)[C@H](NC1CCN(CCCc2c[nH]c3ccc(-n4cnnc4)cc23)CC1)c1ccccc1", "unit_spec": "µM", "val": 0.15}

Request: Complete the entry with IC50 for CN(Cc1cccs1)C1CCN(CCCc2c[nH]c3ccc(-n4cnnc4)cc23)CC1
Response: 0.14

Request: Complete the entry with IC50 for CN(C(=O)Nc1ccccc1)C1CCN(CCCc2c[nH]c3ccc(-n4cnnc4)cc23)CC1
Response: 0.14

---

- measurement_target: 5-hydroxytryptamine receptor 1D (Homo sapiens)
- method_summary: Displacement of [3H]5-HT binding to cloned human 5-hydroxytryptamine 1D receptor stably expressed in CHO cells
- Assay type: cell-based
quantity: pIC50
Note on pIC50: it is the negative log10 of concentration, concentration in mol/L.

Example cases with answers are listed next.
{"smiles_notation": "O=C1N[C@@H](Cc2ccc3[nH]cc(CCCN4CCC(N[C@@H](CO)c5ccccc5)CC4)c3c2)CO1", "measurement_target": "5-hydroxytryptamine receptor 1D (Homo sapiens)", "quantity": "pIC50", "val": 8.20}
{"smiles_notation": "CC(=O)Nc1ccc(CN(C)CC2CCN(CCCc3c[nH]c4ccc(-n5cnnc5)cc34)CC2)cc1", "measurement_target": "5-hydroxytryptamine receptor 1D (Homo sapiens)", "quantity": "pIC50", "val": 9.22}
{"smiles_notation": "CC(C)=CCN(C)C1CCN(CCCc2c[nH]c3ccc(-n4cnnc4)cc23)CC1", "measurement_target": "5-hydroxytryptamine receptor 1D (Homo sapiens)", "quantity": "pIC50", "val": 9.30}

Request: Complete the entry with pIC50 for CC(=O)Nc1ccc(CNC2CCN(CCCc3c[nH]c4ccc(-n5cnnc5)cc34)CC2)cc1
Response: 8.52

---

# maps each entry to its pIC50
- measurement_target: 5-hydroxytryptamine receptor 1B (Homo sapiens, UniProt P28222)
- method_summary: Displacement of [3H]5-HT binding to cloned 5-hydroxytryptamine 1B receptor stably expressed in CHO cells
- Assay type: cell-based
Note on pIC50: it is the negative log10 of concentration, concentration in mol/L.

{"molecule": "c1ccc2c(c1)CCC2NC1CCN(CCCc2c[nH]c3ccc(-n4cnnc4)cc23)CC1 (stereo not drawn)", "pIC50": 6.55}
{"molecule": "CC(=O)Nc1ccc(C(=O)N(C)CC2CCN(CCCc3c[nH]c4ccc(-n5cnnc5)cc34)CC2)cc1", "pIC50": 7.40}

--- query ---
Request: Identify measured pIC50 obtained with 5-hydroxytryptamine receptor 1B (Homo sapiens, UniProt P28222) for CN(CC1CCN(CCCc2c[nH]c3ccc(-n4cnnc4)cc23)CC1)S(=O)(=O)c1ccccc1 .
Response: 7.74

Where do the numbers come from? From ChEMBL document CHEMBL1132157.
